- System: VchCAST RNA-guided transposition machinery (E. coli BL21(DE3) host, lacZ target)
- Run description: relative integration efficiency (T-RL orientation) vs wild-type transposon end (log2 (normalized fold change)); transposon end mutated: right end (5 bp flank + 75 bp right end); higher = more efficient transposition
Metric: relative integration efficiency (log2)
Could you keep your reply to the number by itself?

Give relative integration efficiency (log2) for the following sequence: ACATTTGTGGATACAACCATAAAACGATAATTACACCCATAAATTGATAATTATCACACCCAATTTAACTATAACGCTCTGATCATAGTCAGACCAACATTGCTACGACCCGTATTCGCACCGACAC
-1.13

Give relative integration efficiency (log2) for the following sequence: ACATTTGTTGATACAACCATAAAATGATAATTAGTGGCATAAATTGATAATTATCACACCCATAAATTGATATTGCCTCTGATCATAGTCAGACCAACATTGCTACGACCCGTATTCGCACCGACAC
-1.91

Give relative integration efficiency (log2) for the following sequence: ACATTTGTTGATACAACCATAAAATGATAATGCACCCCATAAATTGATAATTATCACACCCATAAATTGATATTGCCTCTGATCATAGTCAGACCAACATTGCTACGACCCGTATTCGCACCGACAC
-1.24

Give relative integration efficiency (log2) for the following sequence: ACATTTGTTGATACAACCATAAAATGATAATTACAACCATAAAGTGATATTTATCACAACCATATATTGATATCTCCTCTGATCATAGTCAGACCAACATTGCTACGACCCGTATTCGCACCGACAC
-0.331

Give relative integration efficiency (log2) for the following sequence: ACATTTGTTGATACAACCATAAAATGATAATTAGAAACCATACGCTGAAATAATCACACCCATAAATTGATATTGCCTCTGATCATAGTCAGACCAACATTGCTACGACCCGTATTCGCACCGACAC
-3.5

Give relative integration efficiency (log2) for the following sequence: ACATTTGTTGATACAACCATAAAAGGATCATTACCCCCATAAATTGATAATTATCCCACCCAATTTAACTATAACGCTCTGATCATAGTCAGACCAACATTGCTACGACCCGTATTCGCACCGACAC
-2.19

Give relative integration efficiency (log2) for the following sequence: ACATTTGTTGATACAACCATAATTTGATAATTACACCCATAAATTGATAATTATCACACCCATAAATTGATATTGCCTCTGATCATAGTCAGACCAACATTGCTACGACCCGTATTCGCACCGACAC
-0.314

Give relative integration efficiency (log2) for the following sequence: ACATTTGTTGATACACCCATAAATTGATAATTACACCCATAAATTGATAATTATCACACCCATAAATTGATATTGCCTCTGATCATAGTCAGACCAACATTGCTACGACCCGTATTCGCACCGACAC
-0.116

Give relative integration efficiency (log2) for the following sequence: ACATTTGTTGATAACCAACGCCCCGTCGCCGGCACAAACGCCCGGTCGCCGGCTCACACCCATAAATTGATATTGCCTCTGATCATAGTCAGACCAACATTGCTACGACCCGTATTCGCACCGACAC
-7.79

Give relative integration efficiency (log2) for the following sequence: ACATTTGTTGATACAACCATAAAATGATAATTACACCCAGCCCTTGATAATTATCACACCCATAAATTGATATTGCCTCTGATCATAGTCAGACCAACATTGCTACGACCCGTATTCGCACCGACAC
-1.99
